Target: Glucokinase (Homo sapiens, UniProt P35557)
Sequence (P35557 whole entry, species assumed): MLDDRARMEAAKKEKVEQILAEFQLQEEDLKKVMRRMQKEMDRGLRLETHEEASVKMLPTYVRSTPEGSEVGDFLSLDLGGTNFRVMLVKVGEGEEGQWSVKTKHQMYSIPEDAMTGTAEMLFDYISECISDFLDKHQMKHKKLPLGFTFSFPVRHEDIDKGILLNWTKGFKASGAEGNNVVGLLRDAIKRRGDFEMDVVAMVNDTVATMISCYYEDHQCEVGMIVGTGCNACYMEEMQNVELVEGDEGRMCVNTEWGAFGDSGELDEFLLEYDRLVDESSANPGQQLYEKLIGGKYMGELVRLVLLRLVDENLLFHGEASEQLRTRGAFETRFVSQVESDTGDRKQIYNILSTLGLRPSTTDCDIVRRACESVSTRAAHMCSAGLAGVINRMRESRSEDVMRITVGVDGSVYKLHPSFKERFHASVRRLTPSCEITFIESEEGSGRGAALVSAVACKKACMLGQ
Assay: Glucokinase activation assay (NADPH absorbance at 340 nm)
Settings: glucokinase (ProteinOne Inc.), 5 mM D(+)-glucose, 24° C., 90 minutes
# EC50 values compiled below
Report only the number, with the unit nM understood.

> print(dat)
                                   molecule  recorded.endpoint  units.text  data.value
1  CC(C)/C=C\c1cc(OC(C)C)cc(C(=O)Nc2ncc(C(=O)O)s2)c1 [Comparative Example 2, reference compound]               EC50          nM        1870
2  COC[C@H](C)Oc1cc(/C=C/c2ccccc2Cl)cc(C(=O)Nc2ccn(C)n2)c1 (stereo in doubt)               EC50          nM         149

The observed EC50 for COc1cccc(/C=C/c2cc(OCC(C)C)cc(C(=O)Nc3nccs3)c2)c1OC when tested with Glucokinase (Homo sapiens, UniProt P35557) stands at 173

The observed EC50 for COC[C@H](C)Oc1cc(/C=C/c2ccccc2F)cc(C(=O)Nc2ccc(C(=O)OC)cn2)c1 when tested with Glucokinase (Homo sapiens, UniProt P35557) stands at 159

The observed EC50 for COC[C@H](C)Oc1cc(/C=C/c2c(F)cccc2F)cc(C(=O)Nc2nccs2)c1 when tested with Glucokinase (Homo sapiens, UniProt P35557) stands at 14.7

The observed EC50 for CCOC(=O)CC(=O)Nc1ccc(CCc2cc(O[C@@H](C)COC)cc(C(=O)Nc3nccs3)c2)cc1 when tested with Glucokinase (Homo sapiens, UniProt P35557) stands at 204

The observed EC50 for CC(C)COc1cc(/C=C/c2ccccc2[N+](=O)[O-])cc(C(=O)Nc2nccs2)c1 when tested with Glucokinase (Homo sapiens, UniProt P35557) stands at 90.2

* * *

Molecular target: Glucokinase (Homo sapiens, UniProt P35557)
Experiment: Glucokinase activation assay (NADPH absorbance at 340 nm)
Details: glucokinase (ProteinOne Inc.), 5 mM D(+)-glucose, 24° C., 90 minutes
Description: The amounts of glucokinase activation were determined by measuring the levels of NADPH (the final metabolite of glucose through glucokinase-mediated phospho-rylation) and then calculating to glucokinase activities. […] The amounts of glucokinase activation of the compounds of Comparative Examples 1 and 2 were determined, in accordance with the same procedures as in Test Example 1.
Structures can show the parent of a compound that is named as a salt.
// boundary case: EC50 equal to 200 nM maps to not fulfilled; strictly smaller maps to fulfilled

Example entries and their recorded answers appear below.
> print(dat)
                                   compound  qualitative.label
1  COC[C@H](C)Oc1cc(CCc2ccccc2NC(=O)Cc2cccs2)cc(C(=O)Nc2nccs2)c1 [Example 114]      not fulfilled
2  COC[C@H](C)Oc1cc(CCc2cccc(N)c2)cc(C(=O)Nc2nccs2)c1 [Example 111, hydrochloride]          fulfilled
3  CC(C)COc1cc(/C=C/c2c(F)cccc2F)cc(C(=O)Nc2nccs2)c1 [Example 72]          fulfilled
4  COC[C@H](C)Oc1cc(CCc2ccccc2F)cc(C(=O)Nc2ccn(C)n2)c1 [Example 94]      not fulfilled
5  CCC(COC)Oc1cc(/C=C/c2ccc(F)cc2)cc(C(=O)Nc2nccs2)c1 (centres unmarked) [Example 148]      not fulfilled

Task item: API: query returns whether the compound falls strictly under 200 nM in EC50. Query: COC[C@H](C)Oc1cc(CCc2c(F)cccc2F)cc(C(=O)Nc2ccc(C(=O)O)cn2)c1 [Example 109]
Reply: not fulfilled

Task item: API: query returns whether the compound falls strictly under 200 nM in EC50. Query: COC[C@H](C)Oc1cc(/C=C/c2cccc([N+](=O)[O-])c2)cc(C(=O)Nc2ccc(C(=O)OC)cn2)c1 [Example 63]
Reply: not fulfilled

Task item: API: query returns whether the compound falls strictly under 200 nM in EC50. Query: CCOC(=O)Nc1ccc(CCc2cc(O[C@@H](C)COC)cc(C(=O)Nc3nccs3)c2)cc1 [Example 136]
Reply: not fulfilled
